Ref: the supplement of paper PMC6755084

B1: F1*; the commonest letter at each place (parent)
chain: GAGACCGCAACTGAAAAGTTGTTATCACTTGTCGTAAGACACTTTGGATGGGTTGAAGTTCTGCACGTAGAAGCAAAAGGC

Variants of: B1
Test protocol: fraction ligated after 30 min (ligated reads / total reads); higher = more ligase activity
Conditions used: with F1*sub RNA substrate (template-directed ligation), 42 °C
Experimental endpoint: fraction ligated
Just the number.

Guide cases for fraction ligated, answers given:
* G31A A39T | 0.795
* C42G T45C | 0.756
* T29G A56C | 0.787
* G38T A41G | 0.792
* G38T C40G | 0.82
* T35C G47A | 0.811
* T29C G55C | 0.638
* A37G A48T | 0.799
* A24G G50A | 0.449
* A27T G31C | 0.864

Here is another variant to look at.
Ask: Provide one value: measured fraction ligated of T32C T49G
Result: 0.647
